Several reports have described IC50 for Epidermal growth factor receptor (Homo sapiens); a selection of those results is presented here.
MEASURED METRIC: IC50 (nM)

Observe how each entry below is paired with its result.
Nc1cnc(C#Cc2cc3c(Nc4ccc(OCc5cccc(F)c5)c(Cl)c4)ncnc3s2)cn1 | 372
CCNC(=O)c1ccc2c(c1)OCCOCc1c(cnn1C)-c1cc3c(n[nH]c3cn1)/C=C/2 | 884
OC(COc1ncnc2ccccc12)CN1CCN(c2ccccc2Cl)CC1 (stereo not given) | 418

[P] Cn1ncc2c1COCCOc1ccccc1/C=C/c1n[nH]c3cnc-2cc13
[Q] CN1CC[C@@H](NC(=O)c2ccc3c(c2)OCCCOc2c(cnn2C)-c2cc4c(n[nH]c4cn2)/C=C/3)C1
[R] Cc1cc(OCC(=O)N/N=C/c2ccc(F)cc2)c2c(C)nn(-c3ccccc3)c2n1
Exam item: list the entries in increasing order of IC50. Your answer should be the labels, listed in the requested order.
Q, P, R
